Attribution: the supplement of paper PMC10290057

- Tested on: HCT116;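 also: HCT116 colorectal carcinoma cells screened at five concentrations per compound, luminescent viability scaled between DMSO wells and empty wells on each plate, curves fitted per compound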
- method-description: AC50 cell viability (CellTiter-Glo); higher = less potent
- stated-conditions: 48 h
readout-label: AC50 cell viability (µM)
Response body: numeric value in µM, unit text excluded.

Recorded results for 2 compounds are shown here.
{"compound": "C1CCC(C(CC2CCCCN2)C2CCCCC2)CC1 (centres undefined) [Perhexiline]", "AC50 cell viability [µM]": 6.61}
{"compound": "Oc1ccc(-c2ccc(-c3cc(Nc4cccc(CNC5CC5)c4)[nH]n3)cc2)c(O)c1 [TCS-2312]", "AC50 cell viability [µM]": 3.32}

Ask: Answer with reported AC50 cell viability of C#Cc1cccc(Nc2ncnc3cc(OCCOC)c(OCCOC)cc23)c1 [Erlotinib]
Reply: 9.34

Ask: Specify AC50 cell viability for C[C@@H](OC[C@@]1(c2ccccc2)CC[C@]2(CCC(=O)N2)CN1)c1cc(C(F)(F)F)cc(C(F)(F)F)c1 [Rolapitant] and stop.
Reply: 13.2
